Ok so here's the combined literature set: IC50 for NUAK1 (Homo sapiens, UniProt O60285).
RECORDED_METRIC: IC50

* Fc1cccc(F)c1C1=Nc2cnccc2-c2[nH]ncc2N1 | < 10 nM
* CN1C[C@@H]2CN(c3ccc(Nc4ncc(Cl)c(Nc5cccc6c5C(=O)NC6)n4)c(OC(F)F)c3)C[C@@H]2C1 | 11 to 100 nM
* CN(C)C1CCN(C(=O)c2ccc(Nc3cn(-c4c(Cl)cccc4Cl)nc3C(N)=O)cc2)C1 (centres unmarked) | 100 to 1000 nM
* CCNC(=O)c1ccc(Nc2cn(-c3c(F)cccc3F)nc2C(N)=O)cc1 | 100 to 1000 nM
* CC(C)n1ncnc1-c1ccc(Nc2cn(-c3c(F)cccc3Cl)nc2C(N)=O)cc1 | 100 to 1000 nM
* Cc1cnc(Nc2ccc(N3CCN(C)CC3)cc2OC(F)F)nc1Nc1cccc2c1C(=O)NC2 | 11 to 100 nM
* Cc1cnc2c(c1)-c1[nH]ncc1N=C(c1c(F)cccc1F)N2 | 10 to 100 nM
* Fc1cccc(F)c1C1=Nc2c[nH]nc2-c2cccc3ncn1c23 | 10 to 100 nM
